Target: 15-lipoxygenase (Homo sapiens, UniProt P16050)
Sequence (P16050 1-662): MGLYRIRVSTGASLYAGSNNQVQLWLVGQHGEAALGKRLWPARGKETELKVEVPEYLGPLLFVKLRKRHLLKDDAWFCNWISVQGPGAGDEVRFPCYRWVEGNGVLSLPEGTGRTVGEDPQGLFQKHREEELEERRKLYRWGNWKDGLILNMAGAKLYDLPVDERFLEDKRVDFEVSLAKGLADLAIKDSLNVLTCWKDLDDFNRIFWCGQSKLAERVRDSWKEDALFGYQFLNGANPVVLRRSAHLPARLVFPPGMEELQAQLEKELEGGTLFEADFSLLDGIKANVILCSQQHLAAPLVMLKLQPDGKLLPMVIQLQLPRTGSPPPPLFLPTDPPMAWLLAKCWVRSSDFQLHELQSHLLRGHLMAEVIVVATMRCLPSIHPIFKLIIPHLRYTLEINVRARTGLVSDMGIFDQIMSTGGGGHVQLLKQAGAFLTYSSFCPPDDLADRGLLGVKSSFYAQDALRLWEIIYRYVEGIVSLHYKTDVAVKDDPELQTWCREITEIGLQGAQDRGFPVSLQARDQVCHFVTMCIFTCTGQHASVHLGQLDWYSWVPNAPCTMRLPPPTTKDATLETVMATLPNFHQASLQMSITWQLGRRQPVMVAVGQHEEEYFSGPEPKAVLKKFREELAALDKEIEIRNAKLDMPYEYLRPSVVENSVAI
Experiment: 15-lipoxygenase inhibition, DPPP fluorescence assay with linoleic acid
Format: biochemical
Conditions: biological test method; test concentration not given
For each record, write down the corresponding inhibition of 15-lipoxygenase.
Quick note: give the figure in %, leave out the unit.

INPUT: Identify the measured inhibition of 15-lipoxygenase of "CCCCCc1ccc(C(=O)n2ccc(C(=O)Nc3ccc(N(C)C)cc3)n2)cc1" for 15-lipoxygenase (Homo sapiens, UniProt P16050).
OUTPUT: 44

INPUT: Identify the measured inhibition of 15-lipoxygenase of "COC(=O)c1ccsc1NC(=O)c1ccn(C(=O)c2cc(F)ccc2C)n1" for 15-lipoxygenase (Homo sapiens, UniProt P16050).
OUTPUT: 50

INPUT: Identify the measured inhibition of 15-lipoxygenase of "CCOc1ccccc1C(=O)n1ccc(C(=O)Nc2cc(C)no2)n1" for 15-lipoxygenase (Homo sapiens, UniProt P16050).
OUTPUT: 39

INPUT: Identify the measured inhibition of 15-lipoxygenase of "CCOc1ccccc1C(=O)n1ccc(C(=O)Nc2cc(Cl)ccc2C#N)n1" for 15-lipoxygenase (Homo sapiens, UniProt P16050).
OUTPUT: 45

INPUT: Identify the measured inhibition of 15-lipoxygenase of "O=C(Nc1cccnc1)c1ccn(C(=O)c2ccccc2)n1" for 15-lipoxygenase (Homo sapiens, UniProt P16050).
OUTPUT: 45
